Origin of measurements: patent US11242335B2

- assay_method_text: Pharmacokinetics in male SD rats after intravenous and oral administration
- Format: in vivo
- applied_conditions: rat, plasma, iv, 1 mg/kg
- Method: Preparation of test compound solution: The test compound was formulated with 5% dimethylsulfoxide, 5% Solutol HS 15 and 90% physiological saline to give solution, which was used for oral and intravenous administration. Male SD rats weighing 190-250 g were randomly divided into two groups, each group had three members; one group received test compound at a dose of 1.0 mg/kg by intravenous injection, the other group received test compound at a dose of 2.5 or 5.0 mg/kg by oral. […]
measured_endpoint: log10(AUC(0-t)) (log10 of the value in ng·h/mL)
Please note: log10 values; quantity AUC(0-t); unit ng·h/mL.

Data request: Data request, read-out log10(AUC(0-t)), for Nc1nc(-c2nn(Cc3ccccc3F)c3c(F)cccc23)nc(N)c1N1CCOC1=O
Data returned: 3.31

Data request: GET /values?readout=log10(AUC(0-t))&item= Nc1nc(-c2nn(Cc3ccccc3F)c3c(F)cccc23)nc(N)c1N1CCCS1(=O)=O
Data returned: 2.96

Data request: Given COC(=O)N(C)c1c(N)nc(-c2nn(Cc3ccccc3F)c3c(F)cc(F)cc23)nc1N , state its recorded log10(AUC(0-t)).
Data returned: 3.31

Data request: Data request, read-out log10(AUC(0-t)), for COC(=O)N(C)c1c(N)nc(-c2nn(Cc3ccccc3F)c3cc(F)ccc23)nc1N
Data returned: 3.43

Data request: Value lookup for log10(AUC(0-t)); key = COC(=O)Nc1c(N)nc(-c2nn(Cc3ccccc3F)c3c(F)cccc23)nc1N
Data returned: 3.88

Data request: Consider the compound shown here: COC(=O)N(C)c1c(N)nc(-c2nn(Cc3ccccc3F)c3c(F)cccc23)nc1N What is its recorded log10(AUC(0-t))?
Data returned: 3.09

Data request: Looking for the measured log10(AUC(0-t)) of COC(=O)Nc1c(N)nc(-c2nn(Cc3ccccc3F)c3cc(F)ccc23)nc1N , can you help?
Data returned: 4.01

###

- assay_method_text: Pharmacokinetics in male SD rats after intravenous and oral administration
- Assay type: in vivo
- applied_conditions: rat, plasma, po, 5 mg/kg
I'd be grateful if you could share measured half-life for these entries.
Note: unit h is implicit; provide only the numeric part.

Data request: Which half-life is listed for COC(=O)Nc1c(N)nc(-c2nn(Cc3ccccc3F)c3c(F)cccc23)nc1N ?
Data returned: 4.34

Data request: Which value of half-life has been reported for COC(=O)N(C)c1c(N)nc(-c2nn(Cc3ccccc3F)c3cc(F)ccc23)nc1N in the records?
Data returned: 2.98

Data request: For the compound shown here, COC(=O)Nc1c(N)nc(-c2nn(Cc3ccccc3F)c3cc(F)ccc23)nc1N , give the reported half-life.
Data returned: 10.9

Data request: Entry Nc1nc(-c2nn(Cc3ccccc3F)c3c(F)cccc23)nc(N)c1N1CCCS1(=O)=O : reported half-life = ?
Data returned: 1.57

Data request: Dear colleague, I am looking for the recorded half-life of the following compound: Nc1nc(-c2nn(Cc3ccccc3F)c3c(F)cccc23)nc(N)c1N1CCOC1=O
Data returned: 3.13

Data request: Which half-life is listed for COC(=O)N(C)c1c(N)nc(-c2nn(Cc3ccccc3F)c3c(F)cccc23)nc1N ?
Data returned: 2.45

Data request: Quick one: half-life of COC(=O)N(C)c1c(N)nc(-c2nn(Cc3ccccc3F)c3c(F)cc(F)cc23)nc1N ?
Data returned: 3.61

###

Give measured Cmax for each item. Keep answers brief.
- assay_method_text: Pharmacokinetics in male SD rats after intravenous and oral administration
- Assay type: in vivo
- applied_conditions: rat, plasma, iv, 1 mg/kg
Form entry: value (µg/mL) — number only.

Data request: Any idea what its Cmax is? The compound is Nc1nc(-c2nn(Cc3ccccc3F)c3c(F)cccc23)nc(N)c1N1CCOC1=O
Data returned: 0.981

Data request: If you can, please state the reported Cmax value of Nc1nc(-c2nn(Cc3ccccc3F)c3c(F)cccc23)nc(N)c1N1CCCS1(=O)=O .
Data returned: 0.778

Data request: # get_value(readout='Cmax', item= COC(=O)Nc1c(N)nc(-c2nn(Cc3ccccc3F)c3c(F)cccc23)nc1N )
Data returned: 1.5

Data request: Which value of Cmax has been reported for COC(=O)N(C)c1c(N)nc(-c2nn(Cc3ccccc3F)c3cc(F)ccc23)nc1N in the records?
Data returned: 1.31

###

- assay_method_text: Pharmacokinetics in male SD rats after intravenous and oral administration
- Assay type: in vivo
- applied_conditions: rat, plasma, po, 5 mg/kg
measured_endpoint: AUC(0-t) (ng·h/mL)
Quick note: give the figure in ng·h/mL, leave out the unit.

Data request: Which AUC(0-t) reading was recorded for the molecule COC(=O)N(C)c1c(N)nc(-c2nn(Cc3ccccc3F)c3c(F)cccc23)nc1N ?
Data returned: 6580

Data request: Consider the molecule Nc1nc(-c2nn(Cc3ccccc3F)c3c(F)cccc23)nc(N)c1N1CCCS1(=O)=O and give its measured AUC(0-t).
Data returned: 5010

Data request: Value lookup for AUC(0-t); key = COC(=O)N(C)c1c(N)nc(-c2nn(Cc3ccccc3F)c3cc(F)ccc23)nc1N
Data returned: 18300

Data request: Name the recorded AUC(0-t) for COC(=O)Nc1c(N)nc(-c2nn(Cc3ccccc3F)c3c(F)cccc23)nc1N .
Data returned: 37500

###

- assay_method_text: Pharmacokinetics in male SD rats after intravenous and oral administration
- Type: in vivo
- applied_conditions: rat, plasma, po, 5 mg/kg
measured_endpoint: Cmax (ng/mL)
The reply should be a number in ng/mL, with the unit left off.

Data request: If you can, please state the reported Cmax value of COC(=O)Nc1c(N)nc(-c2nn(Cc3ccccc3F)c3c(F)cccc23)nc1N .
Data returned: 3070

Data request: Reported Cmax, compound COC(=O)N(C)c1c(N)nc(-c2nn(Cc3ccccc3F)c3c(F)cc(F)cc23)nc1N : ____
Data returned: 1130

Data request: I have this compound here, Nc1nc(-c2nn(Cc3ccccc3F)c3c(F)cccc23)nc(N)c1N1CCOC1=O , and I need its recorded Cmax.
Data returned: 768

Data request: // lookup Cmax for Nc1nc(-c2nn(Cc3ccccc3F)c3c(F)cccc23)nc(N)c1N1CCCS1(=O)=O
Data returned: 1170

Data request: Need Cmax of COC(=O)N(C)c1c(N)nc(-c2nn(Cc3ccccc3F)c3c(F)cccc23)nc1N , thanks.
Data returned: 1080

Data request: Entry COC(=O)Nc1c(N)nc(-c2nn(Cc3ccccc3F)c3cc(F)ccc23)nc1N has what Cmax?
Data returned: 2690

Data request: Look up Cmax for this compound: COC(=O)N(C)c1c(N)nc(-c2nn(Cc3ccccc3F)c3cc(F)ccc23)nc1N
Data returned: 2480

###

- measurement_target: soluble guanylate cyclase (sGC) expressed by CHO-K1-Rat sGC monoclonal cell line (Rattus norvegicus, UniProt P19686+P20595)
- Sequence (P19686 1-690): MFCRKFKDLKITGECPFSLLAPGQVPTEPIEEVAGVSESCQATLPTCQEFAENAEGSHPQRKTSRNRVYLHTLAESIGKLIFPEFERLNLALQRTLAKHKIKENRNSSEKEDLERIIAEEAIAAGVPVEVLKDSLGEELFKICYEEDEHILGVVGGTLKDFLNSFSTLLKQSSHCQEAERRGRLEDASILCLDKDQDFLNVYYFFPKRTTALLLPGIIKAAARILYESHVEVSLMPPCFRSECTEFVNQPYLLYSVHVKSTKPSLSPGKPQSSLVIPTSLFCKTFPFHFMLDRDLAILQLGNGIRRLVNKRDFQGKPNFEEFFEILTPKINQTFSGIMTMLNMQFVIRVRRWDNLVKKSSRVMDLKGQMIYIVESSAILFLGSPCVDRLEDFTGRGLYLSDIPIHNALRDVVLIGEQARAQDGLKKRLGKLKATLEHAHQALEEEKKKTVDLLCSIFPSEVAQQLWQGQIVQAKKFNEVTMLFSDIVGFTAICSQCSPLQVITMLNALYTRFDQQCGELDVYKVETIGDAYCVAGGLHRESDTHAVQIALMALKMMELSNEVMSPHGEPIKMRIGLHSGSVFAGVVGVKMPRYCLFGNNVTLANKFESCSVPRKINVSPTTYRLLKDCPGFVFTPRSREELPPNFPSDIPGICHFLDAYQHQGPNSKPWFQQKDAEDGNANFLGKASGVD
- Sequence (P20595 1-619): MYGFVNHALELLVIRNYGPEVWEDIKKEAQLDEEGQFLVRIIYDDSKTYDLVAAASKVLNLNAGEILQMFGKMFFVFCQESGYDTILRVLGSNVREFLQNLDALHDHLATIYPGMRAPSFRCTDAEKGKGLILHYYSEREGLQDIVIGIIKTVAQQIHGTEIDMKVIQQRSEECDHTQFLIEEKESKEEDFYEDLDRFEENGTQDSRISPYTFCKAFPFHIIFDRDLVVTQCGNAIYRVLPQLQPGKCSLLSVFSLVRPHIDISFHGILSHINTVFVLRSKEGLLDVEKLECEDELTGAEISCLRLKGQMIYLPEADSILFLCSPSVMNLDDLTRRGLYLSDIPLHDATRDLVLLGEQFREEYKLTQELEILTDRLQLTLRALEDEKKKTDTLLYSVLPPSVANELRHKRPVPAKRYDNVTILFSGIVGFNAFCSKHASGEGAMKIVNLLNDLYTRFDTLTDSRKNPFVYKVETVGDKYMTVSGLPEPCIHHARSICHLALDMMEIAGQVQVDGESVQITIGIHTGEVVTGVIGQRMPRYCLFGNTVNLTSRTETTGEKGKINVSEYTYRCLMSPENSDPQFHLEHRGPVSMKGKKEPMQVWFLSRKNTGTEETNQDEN
- assay_method_text: Effect on recombinant guanylate cyclase reporter cell line (CHO-K1-Rat sGC, Cisbio cGMP HTRF)
- applied_conditions: activating soluble guanylate cyclase
measured_endpoint: pEC50
Worth noting: pEC50 values are minus log10 of concentrations stated in mol/L.

Data request: Suppose we examine the compound Nc1nc(-c2nn(Cc3ccccc3F)c3cc(F)ccc23)nc(N)c1NC1CCOC1 (stereo not shown) ; what pEC50 value has been reported?
Data returned: 6.17

Data request: Dear colleague, I am looking for the recorded pEC50 of the following compound: Nc1nc(-c2nn(Cc3ccccc3F)c3c(F)cccc23)nc(N)c1N1CCOC1=O
Data returned: 6.52

Data request: Which pEC50 is listed for Nc1nc(-c2nn(Cc3ccccc3F)c3c(F)cccc23)nc(N)c1NC1CCOC1 (stereo not shown) ?
Data returned: 6.92

Data request: # query: pEC50 of entry CNC(=O)c1cnc(-c2nn(Cc3ccccc3F)c3c(F)cccc23)nc1N
Data returned: 7.05
